- system_under_test: human 15-PGDH (Homo sapiens)
- Construct: comprising residues 3–256 of the human HPGD gene (GenBank identifier: 1203982); His6 (GHHHHHH, behind the TEV site) (C, cleaved yes); made in house; host or cells: E. coli BL21(DE3)-R3
- Sequence (P15428 3-256): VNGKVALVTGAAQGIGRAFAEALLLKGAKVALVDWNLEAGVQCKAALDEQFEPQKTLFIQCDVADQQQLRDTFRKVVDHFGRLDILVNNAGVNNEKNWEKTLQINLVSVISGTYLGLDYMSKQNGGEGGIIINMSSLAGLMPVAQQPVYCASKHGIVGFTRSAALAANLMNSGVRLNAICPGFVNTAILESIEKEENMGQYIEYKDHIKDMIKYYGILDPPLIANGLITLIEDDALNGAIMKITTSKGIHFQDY
- protocol_text: qHTS and 24-point re-test: fluorescence assay of NAD+ reduction to NADH on PGE2 oxidation (PubChem AID 894)
- Type: biochemical
- condition_description: potency in 24-point titrations on re-test; 20 nM 15-PGDH, 1 mM NAD+, 30 µM PGE2, pH 8.0; read-out: qHTS IC50
pIC50: −log10 of the molar value.
We use 6 as the dividing line for pIC50: on or above the line is 1, below is -1.

As a guide, the following entries are already answered.
[[record]]
compound = "COc1ccccc1NS(=O)(=O)c1cc(C(=O)N2CCC2)ccc1C"
class = 1

[[record]]
compound = "CCCCCCCCNCCOCCOCCOCCOCCNCCCCCCCC"
class = -1


[Q] Please tell me: is the compound `COC(=O)CN(C)C(=O)c1cc(Cl)c(OCC(C)C)c(OC)c1` at or over 6 in terms of pIC50?
[A] 1

[Q] And `COc1ccc(NC(=O)c2sccc2S(=O)(=O)N2CCCCC2)c(OC)c1` ?
[A] -1

[Q] Lookup COc1ccc(C2C(C(=O)O)c3ccccc3C(=O)N2Cc2ccccc2)cc1 (stereo not shown)
[A] -1

[Q] Same lookup for `CN(Cc1cccc(Cl)c1)c1ccc(S(C)(=O)=O)cc1S(C)(=O)=O` , please.
[A] 1

[Q] Moving on to `COc1cccc(NC(=O)N2CCC3(CC2)C(=O)N(CC(=O)NCc2ccc4c(c2)OCO4)CN3c2ccccc2)c1`
[A] 1

[Q] How about Cc1cc([N+](=O)[O-])c2c(c1C)[C@@H]1C=CC[C@@H]1C(c1cccc(Cl)c1)N2 (stereo partly shown) ?
[A] -1

[Q] Entry `O=C(O)CC1(CO)CC1` please
[A] 1

[Q] // next record `COc1ccc(/C=C2\SC(=O)N(CCNC(=O)c3ccc(Br)o3)C2=O)cc1OC`
[A] -1

[Q] For `Fc1ccccc1CSc1nc2cc(Br)cnc2[nH]1` then?
[A] 1

[Q] Further, for `Cc1ccccc1C(=O)N1CCc2ccccc2C1` ?
[A] -1

[Q] Lookup `FC(F)(F)c1ccc(-c2nnco2)cc1`
[A] 1

---

- system_under_test: human 15-PGDH (Homo sapiens)
- Construct: comprising residues 3–256 of the human HPGD gene (GenBank identifier: 1203982); His6 (GHHHHHH, behind the TEV site) (C, cleaved yes); made in house; host or cells: E. coli BL21(DE3)-R3
- protocol_text: Differential scanning fluorimetry (DSF), thermal stabilization
- Type: binding
- condition_description: with 200 µM NADH; 1 µM protein, compound 50 or 250 µM; N/A = no unfolding transition observed in DSF
Under this convention, true (1) denotes ∆Tm [°C] NADH strictly below 3 °C and false (0) denotes ∆Tm [°C] NADH at or above 3 °C.

Answered examples (4):
[[record]]
molecule = "CCN(CC)C(=O)c1sc2nc(-c3cccs3)cc(-c3ccc(Cl)cc3)c2c1N [Compound 36]"
class = "true (1)"

[[record]]
molecule = "C=CCN1C(=O)[C@@H](CC(=O)Nc2cc(C)ccc2C)SC1=Nc1cc(C)cc(C)c1 [Compound 8]"
class = "false (0)"

[[record]]
molecule = "CC(O)CN(C)C(C)N(CCN(C)C)CCN(C)C (stereo not shown) [Compound 56]"
class = "true (1)"

[[record]]
molecule = "O=C(c1ccc(COc2ccccc2Br)cc1)N1CCCCC1 [Compound 7]"
class = "false (0)"


[Q] Take the molecule COCCNC(=O)c1cc2oc3ccccc3c2n1C [Compound 45] and say whether its ∆Tm [°C] NADH is less than 3 °C.
[A] true (1)

[Q] Next up: CC1CCN(C(=O)c2ccc(CSc3ccc(Cl)cc3)cc2)CC1 [Compound 5]
[A] false (0)

[Q] Quick one: CCCC(C(=O)O)C(C)(C)O (stereo not shown) [Compound 32]
[A] false (0)
